read-out: CD40, CD40 (gene 958); assay: BSK_SAg_CD40: BioMAP Diversity Plus: SAg Assay for CD40 Biomarker Activity (AID 2283088); conditions: primary human HUVEC with PBMC; actives raise or lower the signal
The source made the active and inactive calls. Rule for the calls: active = hit-call score of the fitted dose curve at least 0.9, where 1 is the maximum; inactive = score below 0.9.
Return exactly one item of Y (active), N (inactive)

Completed entries (count: 8):
In [3]: df
Out[3]:
                                   molecule  class
0                    O=C(Nc1ccccc1)Nc1cnns1      N
1  CCCN(CCC)c1c([N+](=O)[O-])cc(C(F)(F)F)cc1[N+](=O)[O-]      Y
2                CCN(CC)C(=O)SCc1ccc(Cl)cc1      N
3            N#Cc1c(Cl)c(Cl)c(Cl)c(C#N)c1Cl      Y
4                    CNC(=O)Oc1ccccc1OC(C)C      N
5  COC(=O)c1ccccc1S(=O)(=O)NC(=O)Nc1nc(C)nc(OC)n1      N
6           O=C1c2ccccc2C(=O)N1SC(Cl)(Cl)Cl      N
7          Clc1ccccc1-c1nnc(-c2ccccc2Cl)nn1      N

Problem: Test call for this molecule, please: O=[N+]([O-])/N=C1\NCCN1Cc1ccc(Cl)nc1
Solution: N

Problem: Recorded test outcome, item COC(=O)c1ccccc1S(=O)(=O)NC(=O)N(C)c1nc(C)nc(OC)n1
Solution: N

Problem: Can you look up the reported call for CC(C)(C)C(O)/C(=C\c1ccc(Cl)cc1Cl)n1cncn1 (stereo not given) for me?
Solution: Y

Problem: How was CC1(C)C(C=C(Cl)Cl)C1C(=O)OC(C#N)c1ccc(F)c(Oc2ccccc2)c1 (stereo not given) classified in this test?
Solution: N

Problem: Per the records of this test, what outcome belongs to CCS(=O)(=O)c1cccnc1S(=O)(=O)NC(=O)Nc1nc(OC)cc(OC)n1 ?
Solution: N

====

read-out: Plasminogen activator inhibitor-1 (PAI1), SERPINE1 (gene 5054); assay: BSK_BE3C_PAI1: BioMAP Diversity Plus: BE3C Assay for Plasminogen activator inhibitor-1 (PAI1) Biomarker Activity (AID 2283037); conditions: primary human bronchial epithelial cells; actives raise or lower the signal
Active and inactive are the calls of the source. How the source made its calls: active means hit-call score of the fitted dose curve at least 0.9, where 1 is the maximum; inactive means score below 0.9.
Use one of these outcomes when replying: True for active, False for inactive

In [3]: df
Out[3]:
                       compound  class
0  CCOCN(C(=O)CCl)c1c(C)cccc1CC  False

Problem: Hello, I am checking results. What call was entered for Clc1ccccc1-c1nnc(-c2ccccc2Cl)nn1 ?
Solution: False

Problem: Entry C[C@H]1[C@H](c2ccc(Cl)cc2)SC(=O)N1C(=O)NC1CCCCC1 : call = ?
Solution: True

Problem: Answer briefly: the call reported for CC1(C)C(C=C(Cl)Cl)C1C(=O)OC(C#N)c1ccc(F)c(Oc2ccccc2)c1 (centres undefined) in this assay.
Solution: False

====

read-out: C-C motif chemokine 2 (Homo sapiens); assay: BSK_KF3CT_MCP1: BioMAP Diversity Plus: KF3CT Assay for Monocyte Chemoattractant Protein 1 (MCP1/CCL2) Biomarker Activity (AID 2283073); settings: primary human keratinocytes with fibroblasts; actives raise or lower the signal
Activity calls are given as the source filed them. The calls were made as follows: active = hit-call score of the fitted dose curve at least 0.9, where 1 is the maximum; inactive = score below 0.9.
Your answer must be one of the following: true = active, false = inactive

>>> print(df.to_string())
                    structure_smiles_string  class
0          Cc1[nH]c(=O)n(C(C)(C)C)c(=O)c1Cl  false
1              Oc1cc(Cl)ccc1Oc1ccc(Cl)cc1Cl   true
2                CCN(CC)C(=O)SCc1ccc(Cl)cc1  false
3  CCS(=O)(=O)c1cccnc1S(=O)(=O)NC(=O)Nc1nc(OC)cc(OC)n1   true

Problem: Can you look up the reported call for Cc1cc(C)nc(NC(=O)NS(=O)(=O)c2ccccc2C(=O)OC2COC2)n1 for me?
Solution: false

Problem: For CCCN(CCC)c1c([N+](=O)[O-])cc(C(F)(F)F)cc1[N+](=O)[O-] , which call appears in the assay record?
Solution: false

Values were extracted from PubChem BioAssay (EPA / NIEHS).
